Taken from PubChem BioAssay.

- measurement description: blood-stage malaria parasite viability loss – strain 3D7, DAPI fluorescence, 100 nL, primary screen (AID 1184);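 note: parasites grown inside human red blood cells in medium with human serum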
- test settings: P. falciparum 3D7 growth, 3 d, higher = more signal
reported endpoint: z-score
The answer should be a number; do not append a unit.

Please give measured z-score of the following entry: CCCNC(=O)[C@@]1(Sc2ccc(C)cc2)CC(=O)N(C2Cc3ccccc3C2)[C@@H]1c1ccc(CO)cc1I 0.441

Please give measured z-score of the following entry: COc1ccccc1CN1C(=O)c2ccccc2[C@](Cc2ccccc2I)(C(=O)O)[C@@H]1c1ccc(CO)cc1 -0.0897

Please give measured z-score of the following entry: CC(C)N1C(=O)C[C@@](C(=O)NC2CC2)(c2ccc([N+](=O)[O-])cc2)[C@H]1c1ccc(CO)cc1 -1.15

Please give measured z-score of the following entry: CCOC(=O)C[C@H]1[C@H](OC(=O)Cc2ccc3c(c2)OCO3)[C@@H](NC(=O)c2ccc3ccccc3n2)c2cc(OCCCO)ccc2N1C(=O)c1ccc2ccccc2n1 -2.58

Please give measured z-score of the following entry: COC(=O)C/C=C/C[C@]1(O)C(=O)N(C)c2ccccc21 -0.306

Please give measured z-score of the following entry: NC(=O)[C@H]1[C@@H]2C(=O)O[C@@H](c3ccccc3)[C@@H](c3ccccc3)N2[C@@H](c2ccc(OCCO)cc2)[C@]12C(=O)Nc1ccc(C#CCCO)cc12 0.358

Please give measured z-score of the following entry: CCOC(=O)C=Cc1cccc(C)c1O -1.44

Please give measured z-score of the following entry: CCCC=C(CCC)[C@@H](NS(=O)(=O)CC12CCC(CC1=O)C2(C)C)c1ccc(C(=O)OC)cc1 (stereo not given in full) -0.384

Please give measured z-score of the following entry: CN1C(=O)C2C=CC(C(O)c3cccn3C)N(Nc3ccc([N+](=O)[O-])cc3[N+](=O)[O-])C2C1=O (stereo not given) 0.69

Please give measured z-score of the following entry: COCCOC(=O)N1C(=O)[C@@]2(c3cc(C#CC4(O)CCCCCC4)ccc31)[C@H](C(=O)Nc1nc3ccccc3s1)[C@H]1C(=O)O[C@H](c3ccccc3)[C@H](c3ccccc3)N1[C@@H]2c1ccc(O)cc1 0.219

Please give measured z-score of the following entry: CCCCC(CC)C(O)C1C=CC2C(=O)N(C)C(=O)C2N1Nc1ccccc1 (stereo not given) 0.537

Please give measured z-score of the following entry: CCCC1(C(=O)OC)C=C2C(=C(C)C(=O)C2C)CN1 (stereo not given) 0.43

Please give measured z-score of the following entry: CCCCCCCCCC(O)C1C=CC2C(=O)N(c3ccccc3)C(=O)C2N1Nc1cc(OC)c(OC)c(OC)c1 (stereo not given) -0.412

Please give measured z-score of the following entry: CC(C)c1ccc(NN2C(C(O)c3ccc(F)cc3)C=CC3C(=O)N(c4ccccc4)C(=O)C32)cc1 (stereo not given) -0.344

Please give measured z-score of the following entry: Cc1ccc(S[C@]2(C(=O)O)CC(=O)N(C3CCCCC3)[C@@H]2c2ccc(CO)cc2I)cc1 -0.348

Please give measured z-score of the following entry: CCCCCN1CC=CC23O[C@@H]4C=CCCOC(=O)C4[C@H]2C(=O)N(CCCCCCO)[C@@H]3C1=O (stereo not given in full) -0.103

Please give measured z-score of the following entry: O=C(NCCN1CCOCC1)[C@@H]1c2ccccc2C(=O)N(C2Cc3ccccc3C2)[C@H]1c1ccc(CO)cc1 -0.98

Please give measured z-score of the following entry: C=CCNC(=O)[C@@H]1[C@H]2C(=O)O[C@H](c3ccccc3)[C@H](c3ccccc3)N2[C@H](c2ccccc2OCCO)[C@@]12C(=O)Nc1ccc(C#CCCO)cc12 -2.22

Please give measured z-score of the following entry: COCCCNC(=O)[C@@H]1c2ccccc2C(=O)N(C(C)C)[C@H]1c1ccc(CO)cc1 -0.324

Please give measured z-score of the following entry: C=CCN1C(=O)[C@]2(CCC(=O)OC(C)(C)C)N=C(c3ccc(OCCCO)cc3)O[C@@H]2c2ccccc21 -1.34

Please give measured z-score of the following entry: CC(C)[Si]1(C(C)C)OCc2cc(C3CC3)nc(-c3ccc(Oc4ccccc4)cc3)c21 -1.39

Please give measured z-score of the following entry: Cc1ccc(S[C@]2(C(=O)NC(C)C)CC(=O)N(Cc3cc(C(F)(F)F)cc(C(F)(F)F)c3)[C@@H]2c2ccc(CO)cc2)cc1 -0.938

Please give measured z-score of the following entry: CO[C@H]1O[C@H](CO)[C@@H](OC(=O)Nc2ccc(Br)cc2)[C@@H]2OC(=O)[C@@H](Cc3ccccc3)C/C=C/C[C@H](Cc3ccccc3)C(=O)O[C@@H]12 -0.683

Please give measured z-score of the following entry: CCOC(=O)C[C@H]1[C@H](OC(=O)c2cc3ccccc3oc2=O)[C@@H](NC(=O)CC(C)C)c2cc(OCCCO)ccc2N1C(=O)c1ccc2ccccc2n1 -0.533

Please give measured z-score of the following entry: COCC(=C=CC[C@H](O)c1ccc(CO)o1)CCO 1.08

Please give measured z-score of the following entry: NCCCCCCNC(=O)[C@@H]1C[C@@H]2C(=O)N[C@@H](CCCCN)C(=O)N2[C@@H]1c1ccc(O)cc1 -0.978

Please give measured z-score of the following entry: CCCC[C@@H](O)C1=C(COC)C[C@H]2C(=O)N(C)C(=O)[C@H]2[C@H]1CO -0.68

Please give measured z-score of the following entry: C=CCC(OC(C)=O)[C@@H]1[C@@H](N(Cc2ccc(-c3cccc(C(F)(F)F)c3)o2)C(=O)Cc2ccc(OC)cc2)c2cc(OCCCO)ccc2N1C(=O)c1ccc(-c2ccccc2)cc1 (stereo not given in full) -2.78

Please give measured z-score of the following entry: C=CCNC(=O)[C@@H]1[C@H]2C(=O)O[C@H](c3ccccc3)[C@H](c3ccccc3)N2[C@H](c2ccc(OCCO)cc2)[C@@]12C(=O)N(C(=O)OCCOC)c1ccc(C#Cc3ccc(OC)cc3)cc12 -2.07

Please give measured z-score of the following entry: CS(=O)(=O)CCOC(=O)C1=CC(c2ccc(CO)cc2)=CC(C2CC2)N(Cc2sc3ccccc3c2Cl)C=C1C(=O)OCCS(C)(=O)=O (stereo not given) -3.02
